target: Jak2 (UniProt O60674); assay: phosphorylation enrichment, bacterial display (enrichment ratio); higher = better substrate or ligand; peptides without Tyr show the background;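 further: 11-residue human phosphosite peptides and single-mutation variants displayed on the E. coli surface, counted by deep sequencing, each peptide's frequency after selection divided by its frequency in the unselected input library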;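 further: frequency after pTyr selection over input frequency; kinase dosed for 20-30% of maximal phosphorylation in three min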
Sequence (O60674 whole entry, looked up): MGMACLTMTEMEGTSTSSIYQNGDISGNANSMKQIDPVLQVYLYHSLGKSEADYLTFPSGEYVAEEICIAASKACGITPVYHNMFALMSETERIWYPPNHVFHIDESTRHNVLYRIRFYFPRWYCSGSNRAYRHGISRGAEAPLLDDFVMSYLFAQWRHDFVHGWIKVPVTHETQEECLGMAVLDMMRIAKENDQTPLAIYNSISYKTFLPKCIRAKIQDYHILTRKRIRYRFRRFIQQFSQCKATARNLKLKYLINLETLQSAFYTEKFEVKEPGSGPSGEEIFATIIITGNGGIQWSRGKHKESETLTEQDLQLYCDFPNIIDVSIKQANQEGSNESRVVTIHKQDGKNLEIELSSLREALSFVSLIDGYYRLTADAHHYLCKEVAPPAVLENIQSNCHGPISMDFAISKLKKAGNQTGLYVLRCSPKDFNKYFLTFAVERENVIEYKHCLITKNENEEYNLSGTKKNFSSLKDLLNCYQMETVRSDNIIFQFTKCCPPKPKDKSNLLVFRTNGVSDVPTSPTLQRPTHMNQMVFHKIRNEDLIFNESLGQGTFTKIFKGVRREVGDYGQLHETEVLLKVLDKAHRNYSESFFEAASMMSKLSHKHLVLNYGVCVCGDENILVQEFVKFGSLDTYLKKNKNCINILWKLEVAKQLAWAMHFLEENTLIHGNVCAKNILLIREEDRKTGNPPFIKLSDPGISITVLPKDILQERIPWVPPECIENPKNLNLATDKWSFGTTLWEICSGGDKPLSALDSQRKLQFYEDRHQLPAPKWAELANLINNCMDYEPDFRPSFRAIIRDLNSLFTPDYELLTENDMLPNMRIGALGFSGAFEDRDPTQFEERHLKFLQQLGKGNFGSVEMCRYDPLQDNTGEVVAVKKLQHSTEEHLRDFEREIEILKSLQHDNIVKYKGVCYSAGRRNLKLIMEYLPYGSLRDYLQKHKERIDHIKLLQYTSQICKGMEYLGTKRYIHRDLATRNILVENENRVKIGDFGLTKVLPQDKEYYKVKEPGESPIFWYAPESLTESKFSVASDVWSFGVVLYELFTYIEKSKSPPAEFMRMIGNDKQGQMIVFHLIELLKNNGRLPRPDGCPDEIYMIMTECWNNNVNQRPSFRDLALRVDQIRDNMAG
Response key: 1 (yes) means phosphorylation enrichment >= 1; 0 (no) means phosphorylation enrichment < 1.

Quick check: does GIVEDYRPPFY [ACVRL1_Y421] have phosphorylation enrichment greater than or equal to 1? 0 (no)

Quick check: does PFADPYFDFEI [ZC3H18_Y371_YF] have phosphorylation enrichment greater than or equal to 1? 1 (yes)

Quick check: does CNSFQYGGGGG [NPPA_Y151_R150Q] have phosphorylation enrichment greater than or equal to 1? 0 (no)

Quick check: does FADIAYNYRHR [PAH_Y166_G171R] have phosphorylation enrichment greater than or equal to 1? 0 (no)

Quick check: does KLPFLYDDPFS [GPX2_Y127_P126L_YF] have phosphorylation enrichment greater than or equal to 1? 1 (yes)

Quick check: does STEAIYRRYSK [SH3PXD2B_Y42] have phosphorylation enrichment greater than or equal to 1? 0 (no)

Quick check: does EQLQSYQAEII [KRT33A_Y268] have phosphorylation enrichment greater than or equal to 1? 1 (yes)

Quick check: does GMEIVYVYVKK [DNAI2_Y5] have phosphorylation enrichment greater than or equal to 1? 0 (no)

Quick check: does SVTCTYSPALS [TP53_Y126_N131S] have phosphorylation enrichment greater than or equal to 1? 1 (yes)

Quick check: does "DLHGIYQKLVI" have phosphorylation enrichment greater than or equal to 1? 0 (no)

Quick check: does NSGFFYKTAEE [CCT6B_Y250] have phosphorylation enrichment greater than or equal to 1? 1 (yes)

Quick check: does QGCGIYKDYYR [PLA2G2D_Y82_S80G] have phosphorylation enrichment greater than or equal to 1? 1 (yes)

Quick check: does TQNGVYSAANY [DDX5_Y535] have phosphorylation enrichment greater than or equal to 1? 0 (no)

====

biological target: EPHB2 (UniProt P29323); assay: phosphorylation enrichment, bacterial display (enrichment ratio); higher = better substrate or ligand; peptides without Tyr show the background
Sequence (P29323 whole entry, looked up): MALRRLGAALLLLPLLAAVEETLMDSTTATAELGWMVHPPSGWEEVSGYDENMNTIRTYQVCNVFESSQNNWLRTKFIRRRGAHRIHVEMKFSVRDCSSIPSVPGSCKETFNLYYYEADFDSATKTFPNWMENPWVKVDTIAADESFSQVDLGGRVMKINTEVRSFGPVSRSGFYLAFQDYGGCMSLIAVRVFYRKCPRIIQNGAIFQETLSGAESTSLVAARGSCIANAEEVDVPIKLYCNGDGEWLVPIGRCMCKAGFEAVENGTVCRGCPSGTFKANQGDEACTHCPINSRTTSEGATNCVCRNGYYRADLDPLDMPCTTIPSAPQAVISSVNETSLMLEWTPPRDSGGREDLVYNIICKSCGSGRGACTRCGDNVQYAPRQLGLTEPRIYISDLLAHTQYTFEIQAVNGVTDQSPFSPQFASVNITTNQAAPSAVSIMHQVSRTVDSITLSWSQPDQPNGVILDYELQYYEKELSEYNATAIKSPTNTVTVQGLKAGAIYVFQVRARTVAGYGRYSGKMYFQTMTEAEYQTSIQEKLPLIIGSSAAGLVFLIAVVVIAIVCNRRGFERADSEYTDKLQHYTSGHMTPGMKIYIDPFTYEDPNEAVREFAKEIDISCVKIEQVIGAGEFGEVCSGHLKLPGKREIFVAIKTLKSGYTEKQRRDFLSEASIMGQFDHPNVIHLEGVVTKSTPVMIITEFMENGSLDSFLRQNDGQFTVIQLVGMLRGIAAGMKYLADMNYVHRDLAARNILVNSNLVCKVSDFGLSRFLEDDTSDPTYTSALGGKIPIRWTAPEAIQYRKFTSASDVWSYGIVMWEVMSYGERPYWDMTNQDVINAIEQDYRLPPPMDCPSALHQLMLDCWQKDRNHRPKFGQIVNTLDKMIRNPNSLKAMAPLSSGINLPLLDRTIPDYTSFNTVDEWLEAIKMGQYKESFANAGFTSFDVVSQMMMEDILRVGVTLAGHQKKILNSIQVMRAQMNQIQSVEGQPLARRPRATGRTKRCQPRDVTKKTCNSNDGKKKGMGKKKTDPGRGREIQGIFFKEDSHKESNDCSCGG
Assign classes using reported phosphorylation enrichment values and the ranges low value = under 0.5, medium value = from 0.5 up to 0.8, high value = 0.8 and over, please.

Lab note: sort ENFSEYQEIAV [HEMGN_Y150] into the matching phosphorylation enrichment band. high value

Lab note: sort WGLRSYYETSK [MAGED2_Y448] into the matching phosphorylation enrichment band. medium value

Lab note: sort TLSGIYQFIIA [FOXL2_Y81_YF] into the matching phosphorylation enrichment band. high value

Lab note: sort GKSDPYHATSG [GJA1_Y247] into the matching phosphorylation enrichment band. low value

Lab note: sort EVEPRYVVLFD [ERCC4_Y577_YF] into the matching phosphorylation enrichment band. high value

Lab note: sort REQREYLDQLN [CCDC88B_Y1277] into the matching phosphorylation enrichment band. medium value

Lab note: sort KSEKVYTRHGV [FLOT1_Y56] into the matching phosphorylation enrichment band. low value

Lab note: sort SSFDIYHLSRE [KIR3DL2_Y253_YF] into the matching phosphorylation enrichment band. medium value

Lab note: sort ILTLKYPIEHG [ACTA1_Y71] into the matching phosphorylation enrichment band. low value

Lab note: sort SEHLTYLEFKS [RASGRP1_Y215] into the matching phosphorylation enrichment band. high value

Lab note: sort PCPANYFAFKI [FAM3D_Y65] into the matching phosphorylation enrichment band. high value

Lab note: sort SSYPDYLAAVD [GLB1_Y154_D151Y] into the matching phosphorylation enrichment band. medium value

Lab note: sort FADIAYNYRHR [PAH_Y166_G171R] into the matching phosphorylation enrichment band. low value

Lab note: sort GFEVVYMTEPI [HSP90AB1_Y512] into the matching phosphorylation enrichment band. medium value
